molecular target: recombinant human MASP2 active protease (amino acids 297-686, C-terminal His Tag) (human, UniProt O00187 297-686); assay: cell-based or functional assay
Sequence (O00187 other isoform, or with tags, fused parts or gaps limits assumed): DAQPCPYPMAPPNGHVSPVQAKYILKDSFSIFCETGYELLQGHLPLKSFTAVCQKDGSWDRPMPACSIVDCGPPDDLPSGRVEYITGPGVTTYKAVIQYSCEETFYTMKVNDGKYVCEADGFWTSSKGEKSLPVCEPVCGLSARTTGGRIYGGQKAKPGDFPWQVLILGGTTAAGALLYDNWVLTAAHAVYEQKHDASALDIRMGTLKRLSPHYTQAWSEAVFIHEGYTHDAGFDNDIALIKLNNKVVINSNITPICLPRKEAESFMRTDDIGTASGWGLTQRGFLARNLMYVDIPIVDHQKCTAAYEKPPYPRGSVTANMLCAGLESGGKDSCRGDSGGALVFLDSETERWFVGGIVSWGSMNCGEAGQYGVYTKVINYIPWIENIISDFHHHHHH
Bridge positions count the residues as written; N and C are the ends. Square brackets hold non-standard residues; d marks the D form. Ends that are not written are not given here. NMeI = CC[C@H](C)[C@H](NC)C(=O)O; tBuAla = CC(C)(C)C[C@H](N)C(=O)O; Pen = CC(C)(S)[C@H](N)C(=O)O; Sar = CNCC(=O)O
// reported human MASP2 IC50 per item
PARAMETER MEASURED: human MASP2 IC50 (nM)

>  <BINDER>
AICSRS[tBuAla]PPI[Pen]IPD-NH2 (disulfide 3-11; N-terminus assumed; SMILES CC[C@H](C)[C@H](NC(=O)[C@H](C)N)C(=O)N[C@H]1CSSC(C)(C)[C@@H](C(=O)N[C@H](C(=O)N2CCC[C@H]2C(=O)N[C@@H](CC(=O)O)C(N)=O)[C@@H](C)CC)NC(=O)[C@H]([C@@H](C)CC)NC(=O)[C@@H]2CCCN2C(=O)[C@@H]2CCCN2C(=O)[C@H](CC(C)(C)C)NC(=O)[C@H](CO)NC(=O)[C@H](CCCNC(=N)N)NC(=O)[C@H](CO)NC1=O) [AIC+SRS-((tBu)A)-PPI-(Pen)+IPD-NH2]

>  <PARAMETER MEASURED>
human MASP2 IC50

>  <MEASURED RESULT>
83

$$$$
>  <BINDER>
[Sar][NMeI]CSRS[tBuAla]PPI[Pen]IP-NH2 (disulfide 3-11; N-terminus assumed; SMILES CC[C@H](C)[C@@H]1NC(=O)[C@@H]2CCCN2C(=O)[C@@H]2CCCN2C(=O)[C@H](CC(C)(C)C)NC(=O)[C@H](CO)NC(=O)[C@H](CCCNC(=N)N)NC(=O)[C@H](CO)NC(=O)[C@@H](NC(=O)[C@H]([C@@H](C)CC)N(C)C(=O)CNC)CSSC(C)(C)[C@@H](C(=O)N[C@H](C(=O)N2CCC[C@H]2C(N)=O)[C@@H](C)CC)NC1=O) [((N-Me)G)-((N-Me)I)-C+SRS-((tBu)A)-PPI-(Pen)+IP-NH2]

>  <PARAMETER MEASURED>
human MASP2 IC50

>  <MEASURED RESULT>
590

$$$$
